target: IL-2 receptor βγ complex (CD122/CD132) on HEK-Blue IL-2Rβγ reporter cells (UniProt P14784); assay: cell-based or functional assay
Sequence (P14784 27-551 limits assumed, chain 1 of 2): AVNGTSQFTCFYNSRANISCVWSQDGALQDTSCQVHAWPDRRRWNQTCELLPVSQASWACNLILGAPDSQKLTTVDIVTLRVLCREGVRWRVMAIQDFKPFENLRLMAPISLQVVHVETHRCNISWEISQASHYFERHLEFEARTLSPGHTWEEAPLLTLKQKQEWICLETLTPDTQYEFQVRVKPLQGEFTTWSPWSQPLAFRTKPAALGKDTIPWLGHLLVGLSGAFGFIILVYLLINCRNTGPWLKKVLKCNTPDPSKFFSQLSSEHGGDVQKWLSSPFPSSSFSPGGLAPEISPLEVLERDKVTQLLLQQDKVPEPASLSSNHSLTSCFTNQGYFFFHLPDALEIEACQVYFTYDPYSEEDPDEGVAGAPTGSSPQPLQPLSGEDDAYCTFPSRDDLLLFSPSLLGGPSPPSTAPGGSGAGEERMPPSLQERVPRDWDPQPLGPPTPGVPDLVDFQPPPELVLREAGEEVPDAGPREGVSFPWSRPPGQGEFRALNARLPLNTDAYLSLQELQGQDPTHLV
Sequence (P31785 23-369 limits assumed, chain 2 of 2, further chain): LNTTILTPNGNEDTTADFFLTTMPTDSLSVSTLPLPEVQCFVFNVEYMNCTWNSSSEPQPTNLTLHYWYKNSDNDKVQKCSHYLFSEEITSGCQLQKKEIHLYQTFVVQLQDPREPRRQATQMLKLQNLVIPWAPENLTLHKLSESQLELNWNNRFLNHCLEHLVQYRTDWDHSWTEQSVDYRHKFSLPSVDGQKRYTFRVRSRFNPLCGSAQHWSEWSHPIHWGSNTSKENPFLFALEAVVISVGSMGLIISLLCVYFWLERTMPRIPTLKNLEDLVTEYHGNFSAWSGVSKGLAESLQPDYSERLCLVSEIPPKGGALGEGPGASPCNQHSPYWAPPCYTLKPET
Bridges are numbered along the chain shown (N, C = ends). Primed or numbered codes have the meaning given here. [ ]: non-standard residue; d: D form. Yn3(5) = tyrosine residue modified with an azide-capped PEG9 group (O-(PEG9-azido)-tyrosine); Ygp(5) = O-(8x polyethylene glycol-amino)-tyrosine (Tyr-PEG8-amine); Ygp = O-(8x polyethylene glycol-amino)-tyrosine; Yn3 = O-(9x polyethylene glycol-azido)-tyrosine; hSer = N[C@@H](CCO)C(=O)O; Nle = CCCC[C@H](N)C(=O)O
MEASURED ENDPOINT: Average EC50, HEK-Blue IL-2R (CD122+, CD132+) reporter assay (nM)
# number only, unit nM dropped from output

Recorded results for 2 binders are shown here.
BINDER: CMP-319, Matriptase cleaved molecule (ligand, lactam N-33; also: treated with matriptase (cleavage site not given here)) RGRRVANLVGAPTSSSTKKTQLQLEHLLLDLQEILNGINNYKNPKLTR[Nle]L[hSer][Yn3(5)]KF[Ygp(5)][Nle]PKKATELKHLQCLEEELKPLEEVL[hSer]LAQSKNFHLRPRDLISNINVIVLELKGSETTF[hSer]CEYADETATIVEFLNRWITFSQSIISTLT
MEAS VALUE: 0.0507

BINDER: CMP-321, MMP2 cleaved molecule (ligand, lactam N-32; also: treated with MMP2 (cleavage site not given here)) SGRVQPLVDAPTSSSTKKTQLQLEHLLLDLQEILNGINNYKNPKLTR[Nle]L[hSer][Yn3(5)]KF[Ygp(5)][Nle]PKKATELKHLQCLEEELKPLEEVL[hSer]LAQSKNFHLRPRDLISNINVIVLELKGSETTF[hSer]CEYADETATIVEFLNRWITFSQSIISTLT
MEAS VALUE: 0.181

Turning now to a further record.
Input: Need Average EC50, HEK-Blue IL-2R (CD122+, CD132+) reporter assay of CMP-154 (ligand, linker N-35 via 9x polyethylene glycol) PLGLAGAPTSSSTKKTQLQLEHLLLDLQ[Nle]ILNGIENYKNPKLTR[Nle]L[hSer][Yn3]KF[Ygp][Nle]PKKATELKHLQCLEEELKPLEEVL[hSer]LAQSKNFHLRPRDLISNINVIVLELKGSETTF[hSer]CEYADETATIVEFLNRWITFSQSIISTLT , thanks.
Output: 0.106
